# MEASUREMENT CONTEXT: in DMSO, 298.15 K
READOUT: solubility (mole fraction)
Answer as a number with no unit attached.

Quick one: give measured solubility (mole fraction) for O=c1[nH]c2ccccc2n1CCCN1CCC(n2c(=O)[nH]c3cc(Cl)ccc32)CC1 0.000584

###

# MEASUREMENT CONTEXT: in acetonitrile, 288.15 K
READOUT: solubility (mole fraction)
Answer with a bare number; do not write a unit.

Please give the documented solubility (mole fraction) of O=c1[nH]c2ccccc2n1CCCN1CCC(n2c(=O)[nH]c3cc(Cl)ccc32)CC1 2.54e-07

###

# MEASUREMENT CONTEXT: in acetonitrile, 283.15 K
READOUT: solubility (mole fraction)
I'd appreciate a reply containing only the number, no unit.

Give the measured solubility (mole fraction) for O=c1[nH]c2ccccc2n1CCCN1CCC(n2c(=O)[nH]c3cc(Cl)ccc32)CC1 1.85e-07
